Each recorded value in this set is attributed to the supplement of paper PMC9170038.

tested on: MS2 coat protein; test: apparent KD of MS2 coat protein; designed switch direction (-1 OFF switch, 1 ON switch): -1; higher = weaker reporter binding; conditions: input ligand: FMN 200 uM
Response key: Condition met means apparent KD of MS2 coat protein >= 0.04 µM; Condition not met means apparent KD of MS2 coat protein < 0.04 µM.

Query: Does AGAGAAUACUCAGGAUAUGUGAAUAGAUAGAGAACAGAAGGGAGACAUGAGGAUCACCCAUGUGAAGUCUUGAGGCUGCAUGGA [Prohibition 23 - Jieux - Exclusion NG 1] (Eterna round: R96, puzzle: Exclusion NG 1) have a reported apparent KD of MS2 coat protein of at least 0.04 µM?
Result: Condition met

Query: Item GGAGGAAGAGAGGAUAUGCGCGCAAGGAGCUUAGCAGAAGGUUCAACAUGAGGAUCACCCAUGUAUGAUCCUCA [AK-MS2ROC-r4-exclusion6-5] (Eterna round: R97, puzzle: Exclusion 6) with apparent KD of MS2 coat protein of 0.04 µM or above?
Result: Condition met

Query: Does apparent KD of MS2 coat protein meet or surpass 0.04 µM for AGCAGACGAGGAUAUAGAUUUAGAUACAUGAGGAUCACCCAUGUAUACAUGUAUUUAGAUUUAGAAGGCGUCUGCU [E5/14-A1] (Eterna round: R97, puzzle: Exclusion 5) ?
Result: Condition met

Query: Reported apparent KD of MS2 coat protein at or above 0.04 µM? GCACGGAGUGUAGGAUAUUAGUGCGAUUAGCACUGAGAAGGACAUGAGGAUCACCCAUGUUCCUCAUAAAUUAGCCUUCCGUGC [Eli exng1 - 037] (Eterna round: R96, puzzle: Exclusion NG 1)
Result: Condition not met

Query: Please tell me: is the sequence GCGGAGUCGAUCGUGAGAUCGGAGACAUGAGGAUCACCCAUGUAGGAUAUCGAUUGCUUUGCAGUCGAGAAGGGCGUGCUCCGC [JL denovo 18] (Eterna round: R96, puzzle: Exclusion NG 3) at or over 0.04 µM in terms of apparent KD of MS2 coat protein?
Result: Condition not met

Query: Reported apparent KD of MS2 coat protein at or above 0.04 µM? GUACUGACAGGAUAUACAUGAGGAUCACCCAUGUGCCUUAUCGCUACAAAAGUAGCGGGUAGAAGGGUCUGUAC [Omei Ex3 Model Bachelor's Dilema v19] (Eterna round: R97, puzzle: Exclusion 3)
Result: Condition met

Query: Reported apparent KD of MS2 coat protein reaches at least 0.04 µM for UUAUUGUGAGGAUAUAUAUGCAGUAAUCCUUUAAAUUUAUAACUUGAGGAUCACCCAAGUAGAAGGCGCGAUAU [JR_Ex2_Sub055] (Eterna round: R97, puzzle: Exclusion 2) ?
Result: Condition not met

Query: // inclusive: apparent KD of MS2 coat protein at least 0.04 µM? input: UAUUAGCAAGCAAGAUCCCACAUGAGGAUCACCCAUGUGCUCGUCUUAUAAGGUACUGUGACGAAAGUCACGGUACC [Sensor 3, v1 - 95 v2] (Eterna round: R97, puzzle: Sensor, turn-off variant 1)
Result: Condition met

Query: Is apparent KD of MS2 coat protein at least 0.04 µM? Consider UGAUCAGACCGAGGAUAUACAUGUAGGACGCACGUGAGUGCGUCCAGUACAUGAGGAUCACCCAUGUAGAAGGCGGUCUGAUCU [JL ENG2 1.95] (Eterna round: R96, puzzle: Exclusion NG 2)
Result: Condition met

Query: Form field: apparent KD of MS2 coat protein at least 0.04 µM? Entry: AACAAGUGAGGAUAUGAACCACUUGCCCACGCAUGCGUGGAUCAGAAGGCACUUGAGGAUCACCCAAGUCCUAA [Texeusso] (Eterna round: R97, puzzle: Exclusion 4)
Result: Condition met

Query: Exam item: decide whether the reported apparent KD of MS2 coat protein for UUUUAGUCAGGAUAUACAUGAGGAUCACCCAUGUAAAAUUUUAAUUUAAUUUUAAGGUGUAGAAGGGACCACCC [Ex3 #14] (Eterna round: R97, puzzle: Exclusion 3) is at least 0.04 µM.
Result: Condition not met

Query: Reported apparent KD of MS2 coat protein at or above 0.04 µM? GGGCCACAUGAGGAUCACCCAUGUGAGGAUAUCAUGCUUCGUAGUAAACUACGAAGUGUGAGAAGGCACAAUGG [Omei Ex1 C9] (Eterna round: R97, puzzle: Exclusion 1)
Result: Condition met

Query: Item GUUGUUUAUGUAGGAUAUGCCUGGCGAGCCUAAGCAGAAGGACAUGAGGAUCACCCAUGUAUUGCGGUCUGCGUUCAGAUCGCU [salish99_ExNG1_r4_018] (Eterna round: R96, puzzle: Exclusion NG 1) with apparent KD of MS2 coat protein of 0.04 µM or above?
Result: Condition not met

Query: Say whether GCACGAAGUGUAGGAUAUCUGUGCGAUUAGCUCAGAGAAGGACACAUGAGGAUCACCCAUGUGUUCCAAUCACAAAAUACGUGC [Eli exng1 - 060] (Eterna round: R96, puzzle: Exclusion NG 1) shows apparent KD of MS2 coat protein of 0.04 µM or more.
Result: Condition not met

Query: Record UGUGUGUUUGUGAGGAUAUUGUGUGUGAAAGCGCGCGAGAAGGCACAUGAGGAUCACCCAUGUAAGGGCGCGCG [-26, -24 kcal, A 23%, 6bis-6] (Eterna round: R97, puzzle: Brourd's mod of Exclusion 4) ; criterion: apparent KD of MS2 coat protein no lower than 0.04 µM. Met?
Result: Condition not met

Query: hey, is apparent KD of MS2 coat protein for this one >= 0.04 µM? GGGCGUUAAGGAUAUGAUUGAAGGAACAUGAGGAUCACCCAUGUUCGGUGCCUAAUGUUCUCAGAAGGUGAUAGCU [Eternabot (L1) Solution 50] (Eterna round: R97, puzzle: Exclusion 5)
Result: Condition met

Query: Hello, I need to know if GGACGGAAAGUGAGGAUAUGCUCUACCUCGGUAGAGCAGAAGGCACAUGAGGAUCACCCAUGUGAAAACUGUUC [Omei Ex4B B30] (Eterna round: R97, puzzle: Brourd's mod of Exclusion 4) has measured apparent KD of MS2 coat protein not below 0.04 µM. Thanks!
Result: Condition not met

Query: Is the recorded value of apparent KD of MS2 coat protein equal to or greater than 0.04 µM for this sequence? UAUAACAGAGGAUAUGCGAAUAAAUAAAACUUUUUUUUUUAACAUGAGGAUCACCCAUGUAGAAGGCUGAUAUU [Ex2 #22] (Eterna round: R97, puzzle: Exclusion 2)
Result: Condition not met
